Kindly state IC50 for each of the entries shown.
target: Receptor tyrosine-protein kinase erbB-2 (Homo sapiens, UniProt P04626); assay: Inhibition of recombinant human N-terminal GST-tagged HER2 (679 to 1255 residues) expressed in baculovirus infected Sf9 cells using Poly-(Glu, Tyr) as substrate measured after 45 minutes by Kinase-Glo luminescent assay
Sequence (P04626 whole entry, the tested form may be a part): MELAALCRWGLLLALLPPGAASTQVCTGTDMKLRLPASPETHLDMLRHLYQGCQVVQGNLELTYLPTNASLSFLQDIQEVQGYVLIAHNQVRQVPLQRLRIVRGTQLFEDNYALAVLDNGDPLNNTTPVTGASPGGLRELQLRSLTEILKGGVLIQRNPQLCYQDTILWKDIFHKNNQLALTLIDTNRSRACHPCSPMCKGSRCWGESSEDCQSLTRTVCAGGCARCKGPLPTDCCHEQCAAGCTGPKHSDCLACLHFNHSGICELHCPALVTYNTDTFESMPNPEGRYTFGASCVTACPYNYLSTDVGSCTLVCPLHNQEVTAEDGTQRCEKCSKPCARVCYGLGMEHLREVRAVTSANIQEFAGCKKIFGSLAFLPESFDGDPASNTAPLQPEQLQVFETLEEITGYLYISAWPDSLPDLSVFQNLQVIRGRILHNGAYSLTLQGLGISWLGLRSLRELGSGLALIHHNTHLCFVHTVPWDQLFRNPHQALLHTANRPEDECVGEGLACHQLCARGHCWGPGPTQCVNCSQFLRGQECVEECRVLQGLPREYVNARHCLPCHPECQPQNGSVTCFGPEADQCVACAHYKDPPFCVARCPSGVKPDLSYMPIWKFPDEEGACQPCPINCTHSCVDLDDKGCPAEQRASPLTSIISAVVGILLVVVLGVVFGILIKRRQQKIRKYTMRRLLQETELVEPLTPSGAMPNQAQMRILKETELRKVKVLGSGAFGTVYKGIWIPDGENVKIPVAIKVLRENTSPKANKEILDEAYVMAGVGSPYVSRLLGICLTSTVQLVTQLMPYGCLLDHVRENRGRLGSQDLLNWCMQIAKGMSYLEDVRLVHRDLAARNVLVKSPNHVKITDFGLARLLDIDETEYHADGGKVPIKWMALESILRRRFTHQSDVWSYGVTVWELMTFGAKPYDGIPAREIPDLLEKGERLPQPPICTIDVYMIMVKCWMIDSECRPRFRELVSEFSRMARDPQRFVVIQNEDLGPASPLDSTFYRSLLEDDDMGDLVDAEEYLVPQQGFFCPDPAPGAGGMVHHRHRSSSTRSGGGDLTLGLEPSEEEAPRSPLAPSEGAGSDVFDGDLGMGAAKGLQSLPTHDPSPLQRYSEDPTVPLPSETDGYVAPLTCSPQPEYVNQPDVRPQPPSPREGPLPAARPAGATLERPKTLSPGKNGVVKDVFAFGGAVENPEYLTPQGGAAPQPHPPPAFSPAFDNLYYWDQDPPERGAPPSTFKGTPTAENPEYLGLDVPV
Give just the number in nM; leave the unit off.

Query IC50 for CC(=O)Nc1ccc(-c2cc3c(Nc4ccc(Oc5cccc(C(F)(F)F)c5)c(Cl)c4)ncnc3s2)cc1
879

Query IC50 for CS(=O)(=O)Nc1ccc(-c2cc3c(Nc4ccc(Oc5cccc(C(F)(F)F)c5)c(Cl)c4)ncnc3s2)cc1
19200

Query IC50 for O=C(NCCN1CCOCC1)Nc1ccc(-c2cc3c(Nc4ccc(Oc5cccc(C(F)(F)F)c5)c(Cl)c4)ncnc3s2)cc1
1200

Query IC50 for O=C(Nc1ccc(-c2cc3c(Nc4ccc(Oc5cccc(C(F)(F)F)c5)c(Cl)c4)ncnc3s2)cc1)NC1CC1
37100

Query IC50 for Nc1ccc(-c2cc3c(Nc4ccc(Oc5cccc(C(F)(F)F)c5)c(Cl)c4)ncnc3s2)cc1
1500

Hello, the source for this data is ChEMBL document CHEMBL4270530, in case you need it.
